Test: Selectivity index, ratio of TC50 for mice (Mus musculus) L929 cells to IC50 for Plasmodium falciparum 3D7
Assay type: toxicity, cell-based
// selectivity ratio lookup, one value per entry

# structure notation, censoring sign, selectivity ratio
measured = [
    ("COc1cc(OC)c(OC)cc1/C=C/C(=O)c1ccc(I)cc1", ">", 50),
    ("COc1cc(OC)c(OC)cc1/C=C/C(=O)c1ccc(Br)cc1", "=", 55.6),
    ("COc1ccc(/C=C/C(=O)c2ccc(Cl)cc2)c(OC)c1", "=", 14.6),
    ("COc1cc(OC)c(OC)cc1/C=C/C(=O)c1ccc(Cl)cc1", "=", 8.3),
    ("COc1cc(/C=C/C(=O)c2ccc(Cl)cc2)cc(OC)c1OC", "=", 2.8),
]

Origin of measurements: ChEMBL document CHEMBL1287658
